FYI, the data here is from ChEMBL document CHEMBL1157775.

The following compounds are listed with their measured microsomal CLint values.
ASSAY_TEXT: Intrinsic clearance in rat liver microsomes assessed per mg of protein
Assay type: ADME, Microsome
METRIC_NAME: microsomal CLint (µL/min/mg)

>  <SMILES_RECORD>
Cc1cc(C#N)nc(C)c1C(=O)N1C[C@H]2CN(CC[C@H](NC(=O)C3CCCC3)c3ccccc3)C[C@H]2C1

>  <OBSERVED_RESULT>
144

$$$$
>  <SMILES_RECORD>
Cc1ccnc(C)c1C(=O)N1C[C@H]2CN(CC[C@H](NC(=O)C3CCCC3)c3ccccc3)C[C@H]2C1

>  <OBSERVED_RESULT>
89

$$$$
>  <SMILES_RECORD>
Cc1cccc(C)c1C(=O)N1C[C@H]2CN(CC[C@H](NC(=O)C3CCCC3)c3ccccc3)C[C@H]2C1

>  <OBSERVED_RESULT>
322

$$$$
>  <SMILES_RECORD>
COc1cc(C)c(C(=O)N2C[C@H]3CN(CC[C@H](NC(=O)C4CCCC4)c4ccccc4)C[C@H]3C2)c(C)c1

>  <OBSERVED_RESULT>
236

$$$$

* * *

ASSAY_TEXT: Intrinsic clearance in rat liver microsomes assessed per mg of protein
Type: ADME, Microsome
The following compounds are listed with their measured microsomal CLint values.
METRIC_NAME: microsomal CLint

>  <SMILES_RECORD>
Cc1cc(F)cc(C)c1C(=O)N1C[C@H]2CN(CC[C@H](NC(=O)C3CCCC3)c3ccccc3)C[C@H]2C1

>  <OBSERVED_RESULT>
517 µL/min/mg

$$$$
>  <SMILES_RECORD>
Cc1ncnc(C)c1C(=O)N1C[C@H]2CN(CC[C@H](NC(=O)CC3CC(F)(F)C3)c3cccc(C#N)c3)C[C@H]2C1

>  <OBSERVED_RESULT>
31 µL/min/mg

$$$$
>  <SMILES_RECORD>
Cc1ncnc(C)c1C(=O)N1C[C@H]2CN(CC[C@H](NC(=O)CC3CCC(F)(F)CC3)c3ccccc3)C[C@H]2C1

>  <OBSERVED_RESULT>
46 µL/min/mg

$$$$
>  <SMILES_RECORD>
Cc1ncnc(C)c1C(=O)N1C[C@H]2CN(CC[C@H](NC(=O)CC3CCC(F)(F)CC3)c3cccc(F)c3)C[C@H]2C1

>  <OBSERVED_RESULT>
24 µL/min/mg

$$$$

* * *

The following molecules are listed with their measured AUC values.
ASSAY_TEXT: AUC in rat at 10 mg/kg, po
Type: ADME, organism-based
Design: dose 10 mg/kg, route oral
PROTOCOL_CONDITIONS: plasma
METRIC_NAME: AUC

>  <SMILES_RECORD>
Cc1ncnc(C)c1C(=O)N1C[C@H]2CN(CC[C@H](NC(=O)C3CCCC3)c3ccccc3)C[C@H]2C1

>  <METRIC_NAME>
AUC

>  <OBSERVED_RESULT>
309 ng·h/mL

$$$$
>  <SMILES_RECORD>
Cc1ccnc(C)c1C(=O)N1C[C@H]2CN(CC[C@H](NC(=O)C3CCCC3)c3ccccc3)C[C@H]2C1

>  <METRIC_NAME>
AUC

>  <OBSERVED_RESULT>
65 ng·h/mL

$$$$
>  <SMILES_RECORD>
Cc1cccc(C)c1C(=O)N1C[C@H]2CN(CC[C@H](NC(=O)C3CCCC3)c3ccccc3)C[C@H]2C1

>  <METRIC_NAME>
AUC

>  <OBSERVED_RESULT>
31 ng·h/mL

$$$$
>  <SMILES_RECORD>
Cc1ncnc(C)c1C(=O)N1C[C@H]2CN(CC[C@H](NC(=O)CC3CCC(F)(F)CC3)c3ccccc3)C[C@H]2C1

>  <METRIC_NAME>
AUC

>  <OBSERVED_RESULT>
215 ng·h/mL

$$$$
